Target: PfENT1 (Plasmodium falciparum, UniProt Q8IDM6)
Sequence (Q8IDM6 whole entry): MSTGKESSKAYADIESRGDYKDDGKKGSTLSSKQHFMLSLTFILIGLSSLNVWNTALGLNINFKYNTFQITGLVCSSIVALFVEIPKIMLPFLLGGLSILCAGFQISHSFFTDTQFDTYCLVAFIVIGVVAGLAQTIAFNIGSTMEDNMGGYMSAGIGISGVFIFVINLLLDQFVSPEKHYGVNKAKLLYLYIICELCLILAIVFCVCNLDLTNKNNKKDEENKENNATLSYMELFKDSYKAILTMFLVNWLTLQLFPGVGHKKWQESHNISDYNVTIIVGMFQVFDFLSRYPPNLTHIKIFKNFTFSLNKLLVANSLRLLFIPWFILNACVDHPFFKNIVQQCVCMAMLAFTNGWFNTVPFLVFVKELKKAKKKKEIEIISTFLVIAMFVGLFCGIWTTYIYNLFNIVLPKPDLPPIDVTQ
Assay: Inhibition of [3H]-adenine uptake by PfENT1-expressing Xenopus oocytes
Conditions: increasing concentrations of 5-FUrd
quantity measured: Ki (µM)

[[record]]
molecule_smiles = "O=c1[nH]c(=O)n([C@@H]2O[C@H](CO)[C@@H](O)[C@H]2O)cc1F"
recorded_number = 1100


====

System: PfENT1-expressing fui1Δ yeast
Assay: 5-FUrd cytotoxicity assay, growth (OD600) of PfENT1-expressing fui1Δ yeast
Type: cell-based
Settings: Saccharomyces cerevisiae, 9.5 h, read-out: 5-FUrd IC50, shaken versus unshaken comparison
pIC50: −log10 of the molar value.
quantity measured: pIC50

[[record]]
molecule = "O=c1[nH]c(=O)n([C@@H]2O[C@H](CO)[C@@H](O)[C@H]2O)cc1F [5-FUrd, 5-fluorouridine]"
recorded_number = 5.05


The reported numbers originate from patent US10648012B2.
